- Tested on: Influenza A virus
- method: Antiviral activity against Influenza A virus A/PR/8/34 (H1N1) infected in MDCK cells measured after 48 hrs post infection by plaque reduction assay
- Format: functional, organism-based
- study-conditions: A/Puerto Rico/8/1934(H1N1)
metric-name: EC50

# compound-structure, result
records = [
    ("O=C(Nc1sc2c(c1C(=O)N1CCN(c3ccccn3)CC1)CCCCC2)c1ccccc1O", "> 100 µM"),
    ("O=C(Nc1sc2c(c1C(=O)NCc1ccccn1)CCCCC2)c1ccccc1O", "> 100 µM"),
    ("CC(C)NC(=O)c1c(NC(=O)c2ccccc2O)sc2c1CCCCC2", "> 100 µM"),
    ("CC(C)(C)NC(=O)c1c(NC(=O)c2ccccc2O)sc2c1CCCCC2", "> 100 µM"),
    ("O=C(Nc1sc2c(c1C(=O)NCc1ccccc1)CCCCC2)c1ccccc1O", "> 100 µM"),
    ("O=C(Nc1sc2c(c1C(=O)NC1CCCCC1)CCCCC2)c1ccccc1O", "> 100 µM"),
]
